experiment: in vitro; details: African green monkey
Please respond with reported CC50 for every item in the list.

As a guide, the following entries are already answered.
* COc1cccc2[nH]c(C(=O)N[C@@H](Cc3cccc(F)c3)C(=O)N[C@@H](C[C@@H]3CC(=O)NC3=O)C(=O)COc3c(F)c(F)c(C(C)O)c(F)c3F)cc12 (stereo partly shown) | > 10 µM
* COc1cccc2[nH]c(C(=O)N[C@@H](Cc3cccc(F)c3)C(=O)N[C@@H](C[C@@H]3CCNC3=O)C(=O)COc3c(F)c(F)cc(F)c3F)cc12 [compound 15, reference compound] | > 1.26 µM
* COc1cccc2[nH]c(C(=O)N[C@@H](Cc3cccc(F)c3)C(=O)N[C@@H](C[C@@H]3CCNC3=O)C(=O)COc3c(F)c(F)c(C(C)O)c(F)c3F)cc12 (stereo partly shown) | > 1.26 µM
* COc1cccc2[nH]c(C(=O)N[C@@H](Cc3cccc(F)c3)C(=O)N[C@@H](C[C@@H]3CC(=O)NC3=O)C(=O)COc3c(F)c(F)c(C(C)(C)O)c(F)c3F)cc12 | > 5.01 µM

Record CC50 for all entries; do not skip any.
1. O=C(N[C@@H](Cc1c[nH]c2ccccc12)C(=O)N[C@@H](C[C@@H]1CCNC1=O)C(=O)COc1c(F)c(F)c(CO)c(F)c1F)c1cc2ccccc2[nH]1
2. COc1cccc2[nH]c(C(=O)N[C@@H](Cc3cccc(F)c3)C(=O)N[C@@H](CCn3cn[nH]c3=O)C(=O)COc3c(F)c(F)c(C(C)(C)O)c(F)c3F)cc12

> 10 µM
> 10 µM

###

assay: in vitro; details: hamster, hepatocytes, CLint (hamster hepatocytes)
propertyName: hepatocyte CLint at 2 h, 2 µM

• CC(C)(O)c1c(F)c(F)c(OCC(=O)[C@H](C[C@@H]2CCNC2=O)NC(=O)[C@@H]2[C@@H]3[C@H](CN2C(=O)[C@@H](NC(=O)C(F)(F)F)C(C)(C)C)C3(C)C)c(F)c1F [compound 14] = 62.1 µL/min/1e6 cells
• COc1cccc2[nH]c(C(=O)N[C@@H](Cc3cccc(F)c3)C(=O)N[C@@H](C[C@@H]3CCNC3=O)C(=O)COc3c(F)c(F)c(CO)c(F)c3F)cc12 [compound 1] = 87.6 µL/min/1e6 cells

For every listed record, write down its hepatocyte CLint at 2 h, 2 µM.
1. CC(C)(C)[C@H](NC(=O)C(F)(F)F)C(=O)N1C[C@H]2[C@@H]([C@H]1C(=O)N[C@@H](C[C@@H]1CCNC1=O)C(=O)COc1c(F)c(F)c(CO)c(F)c1F)C2(C)C [compound 7]
2. COc1cccc2[nH]c(C(=O)N[C@@H](Cc3cccc(F)c3)C(=O)N[C@@H](C[C@@H]3CCNC3=O)C(=O)COc3c(F)c(F)c(C(C)(C)O)c(F)c3F)cc12 [compound 10]
3. COc1cccc2[nH]c(C(=O)N[C@@H](Cc3cccc(F)c3)C(=O)N[C@@H](C[C@@H]3CCNC3=O)C(=O)COc3c(F)c(F)c(C(C)O)c(F)c3F)cc12 (some centres unmarked) [compound 8]

50.2 µL/min/1e6 cells
27.5 µL/min/1e6 cells
33.1 µL/min/1e6 cells

###

assay: Hamster hepatocyte stability; conditions: cryopreserved hepatocytes, t1/2 (hamster hepatocytes), without ritonavir
propertyName: half-life at 2 h, 2 µM (min)
One number for each entry, in min.

Completed entries (count: 4):
- COc1cccc2[nH]c(C(=O)N[C@@H](Cc3cccc(F)c3)C(=O)N[C@@H](C[C@@H]3CCNC3=O)C(=O)COc3c(F)c(F)c(CO)c(F)c3F)cc12 [compound 1]: 7.9
- COc1cccc2[nH]c(C(=O)N[C@@H](Cc3cccc(F)c3)C(=O)N[C@@H](C[C@@H]3CCNC3=O)C(=O)COc3c(F)c(F)c(C(C)(C)O)c(F)c3F)cc12 [compound 10]: 25.2
- CC(C)(C)[C@H](NC(=O)C(F)(F)F)C(=O)N1C[C@H]2[C@@H]([C@H]1C(=O)N[C@@H](C[C@@H]1CCNC1=O)C(=O)COc1c(F)c(F)c(CO)c(F)c1F)C2(C)C [compound 7]: 13.8
- COc1cccc2[nH]c(C(=O)N[C@@H](Cc3cccc(F)c3)C(=O)N[C@@H](C[C@@H]3CCNC3=O)C(=O)COc3c(F)c(F)c(C(C)O)c(F)c3F)cc12 (some centres unmarked) [compound 8]: 20.9

From here, focus on the item given below.
Indicate the recorded half-life at 2 h, 2 µM value for this compound: CC(C)(O)c1c(F)c(F)c(OCC(=O)[C@H](C[C@@H]2CCNC2=O)NC(=O)[C@@H]2[C@@H]3[C@H](CN2C(=O)[C@@H](NC(=O)C(F)(F)F)C(C)(C)C)C3(C)C)c(F)c1F [compound 14] 11.2

###

target: human cathepsin B (hCTSB) (Homo sapiens); assay: hCTSB biochemical assay
Values of hCTSB biochemical assay pIC50 greater than or equal to 6 map to criterion met; values below map to criterion not met.

Does the reported hCTSB biochemical assay pIC50 for CC(C)(C)[C@H](NC(=O)C(F)(F)F)C(=O)N1C[C@H]2[C@@H]([C@H]1C(=O)N[C@@H](C[C@@H]1CCNC1=O)C(=O)COc1c(F)c(F)c(CO)c(F)c1F)C2(C)C [compound 7] fall at or above the 6 mark? criterion not met

Dear colleague, could you confirm whether COc1cccc2[nH]c(C(=O)N[C@@H](Cc3cccc(F)c3)C(=O)N[C@@H](C[C@@H]3CC(=O)NC3=O)C(=O)COc3c(F)c(F)c(CO)c(F)c3F)cc12 [compound 6] has hCTSB biochemical assay pIC50 at or above 6? criterion met

Reported hCTSB biochemical assay pIC50 at or above 6? O=C(N[C@@H](Cc1c[nH]c2ccccc12)C(=O)N[C@@H](C[C@@H]1CCNC1=O)C(=O)COc1c(F)c(F)c(CO)c(F)c1F)c1cc2ccccc2[nH]1 [compound 5] criterion met

Check this molecule for hCTSB biochemical assay pIC50 at or above 6: CC(C)(O)c1c(F)c(F)c(OCC(=O)[C@H](C[C@@H]2CCNC2=O)NC(=O)[C@@H]2[C@@H]3[C@H](CN2C(=O)[C@@H](NC(=O)C(F)(F)F)C(C)(C)C)C3(C)C)c(F)c1F [compound 14] criterion not met

I'd appreciate it if you could say whether COc1cccc2[nH]c(C(=O)N[C@@H](Cc3cccc(F)c3)C(=O)N[C@@H](C[C@@H]3CCNC3=O)C(=O)COc3c(F)c(F)cc(F)c3F)cc12 [compound 15, reference compound] has hCTSB biochemical assay pIC50 at least equal to 6. criterion not met

Kindly determine if hCTSB biochemical assay pIC50 recorded for CCCCCCCCCCCCCCCC(=O)N[C@@H](Cc1cccc(F)c1)C(=O)N[C@@H](C[C@@H]1CCNC1=O)C(=O)COc1c(F)c(F)c(CO)c(F)c1F [compound 4] is above or exactly 6. criterion not met

Identify whether the reported hCTSB biochemical assay pIC50 of the following molecule is 6 or greater: CCCCCCCC(=O)N[C@@H](Cc1cccc(F)c1)C(=O)N[C@@H](C[C@@H]1CCNC1=O)C(=O)COc1c(F)c(F)c(CO)c(F)c1F [compound 3] criterion met

###

assay: physchem; settings: pH 7.4
propertyName: log10 solubility kinetic at 24 h (log10 of the value in µM)
Use the decimal logarithm of solubility kinetic at 24 h (µM).

Take a look at these entries with their results.
• CC(C)(C)[C@H](NC(=O)C(F)(F)F)C(=O)N1C[C@H]2[C@@H]([C@H]1C(=O)N[C@@H](C[C@@H]1CCNC1=O)C(=O)COc1c(F)c(F)c(CO)c(F)c1F)C2(C)C [compound 7] = 1.85
• COc1cccc2[nH]c(C(=O)N[C@@H](Cc3cccc(F)c3)C(=O)N[C@@H](C[C@@H]3CCNC3=O)C(=O)COc3c(F)c(F)c(C(C)(C)O)c(F)c3F)cc12 [compound 10] = 0.56
• COc1cccc2[nH]c(C(=O)N[C@@H](Cc3cccc(F)c3)C(=O)N[C@@H](C[C@@H]3CC(=O)NC3=O)C(=O)COc3c(F)c(F)c(CO)c(F)c3F)cc12 [compound 6] = 1.32
• CC(C)(O)c1c(F)c(F)c(OCC(=O)[C@H](C[C@@H]2CCNC2=O)NC(=O)[C@@H]2[C@@H]3[C@H](CN2C(=O)[C@@H](NC(=O)C(F)(F)F)C(C)(C)C)C3(C)C)c(F)c1F [compound 14] = 1.89
• COc1cccc2[nH]c(C(=O)N[C@@H](Cc3cccc(F)c3)C(=O)N[C@@H](CCn3cn[nH]c3=O)C(=O)COc3c(F)c(F)c(C(C)(C)O)c(F)c3F)cc12 [compound 13] = 0.83

Return reported log10 solubility kinetic at 24 h values for all items listed beneath this line.
1. COc1cccc2[nH]c(C(=O)N[C@@H](Cc3cccc(F)c3)C(=O)N[C@@H](C[C@@H]3CCNC3=O)C(=O)COc3c(F)c(F)c(CO)c(F)c3F)cc12 [compound 1]
2. COc1cccc2[nH]c(C(=O)N[C@@H](Cc3cccc(F)c3)C(=O)N[C@@H](C[C@@H]3CCNC3=O)C(=O)COc3c(F)c(F)c(F)c(F)c3F)cc12 [compound 16, reference compound]

[1.26, 0.61]

Go through the list and state log10 solubility kinetic at 24 h for each entry.
1. COc1cccc2[nH]c(C(=O)N[C@@H](Cc3cccc(F)c3)C(=O)N[C@@H](C[C@@H]3CC(=O)NC3=O)C(=O)COc3c(F)c(F)c(C(C)O)c(F)c3F)cc12 (some centres unmarked) [compound 9]
2. COc1cccc2[nH]c(C(=O)N[C@@H](Cc3cccc(F)c3)C(=O)N[C@@H](C[C@@H]3CC(=O)NC3=O)C(=O)COc3c(F)c(F)c(C(C)(C)O)c(F)c3F)cc12 [compound 11]
3. COc1cccc2[nH]c(C(=O)N[C@@H](Cc3cccc(F)c3)C(=O)N[C@@H](C[C@@H]3CCNC3=O)C(=O)COc3c(F)c(F)c(C(C)O)c(F)c3F)cc12 (some centres unmarked) [compound 8]
4. COc1cccc2[nH]c(C(=O)N[C@@H](Cc3cccc(F)c3)C(=O)N[C@@H](C[C@@H]3CCNC3=O)C(=O)COc3c(F)c(F)cc(F)c3F)cc12 [compound 15, reference compound]

1. 0.80
2. -0.06
3. 1.09
4. 0.15

Attribution: paper PMC12169608
